Read-out record for Matrix metalloproteinase-9 (Homo sapiens, UniProt P14780): IC50
readout_label: IC50 (µM)

>>> df
                           molecular_string                                       tgt  readout_label  unit_spec  experimental_result
0  COc1ccc(C[C@@H](OC(=O)/C=C/c2ccc(OCc3ccccc3)c(OCc3ccccc3)c2)C(=O)O)cc1OC  Matrix metalloproteinase-9 (Homo sapiens, UniProt P14780)           IC50         µM                  6.7
1  COc1ccc(C[C@H](OC(=O)/C=C/c2ccc(OCc3ccccc3)c(OCc3ccccc3)c2)C(=O)O)cc1OC  Matrix metalloproteinase-9 (Homo sapiens, UniProt P14780)           IC50         µM                    6

* * *

IC50 reference
# tgt: UniProt P03956
# Sequence (P03956 whole entry, the tested form may be a part): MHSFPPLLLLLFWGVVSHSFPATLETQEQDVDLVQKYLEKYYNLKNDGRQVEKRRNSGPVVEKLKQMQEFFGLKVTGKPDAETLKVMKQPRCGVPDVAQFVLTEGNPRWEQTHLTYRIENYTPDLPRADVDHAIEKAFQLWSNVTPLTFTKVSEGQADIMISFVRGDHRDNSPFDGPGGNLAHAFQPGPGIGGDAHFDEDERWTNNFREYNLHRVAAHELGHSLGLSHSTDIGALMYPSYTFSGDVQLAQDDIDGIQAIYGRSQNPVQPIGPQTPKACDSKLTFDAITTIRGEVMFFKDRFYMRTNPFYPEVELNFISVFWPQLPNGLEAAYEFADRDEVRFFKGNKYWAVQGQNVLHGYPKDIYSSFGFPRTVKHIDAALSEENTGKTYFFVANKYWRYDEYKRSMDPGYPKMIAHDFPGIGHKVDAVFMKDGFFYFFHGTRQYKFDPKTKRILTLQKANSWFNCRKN
# measurement_notes: Inhibition of human recombinant MMP1 catalytic domain using Dnp-Pro-beta-cyclohexyl-Ala-Gly-Cys(Me)-His-Lys-(Nma)-NH2 as substrate preincubated with enzyme for 30 mins prior to substrate addition monitored for 60 mins by fluorometric assay

                                   compound             tgt  experimental_result
0  COc1ccc(CC(OC(=O)/C=C/c2ccc(C)cc2)C(=O)O)cc1OC (stereo not drawn)  UniProt P03956             > 100 µM

Give me measured IC50, please, for this compound: C=CCOC(=O)C(Cc1ccc(OC)c(OC)c1)OC(=O)/C=C/c1ccc([N+](=O)[O-])cc1 (stereo not drawn)
> 100 µM

Give me measured IC50, please, for this compound: C=CCOC(=O)C(Cc1ccc(OC)c(OC)c1)OC(=O)/C=C/c1ccc(C(F)(F)F)cc1 (stereo not drawn)
> 100 µM
